tested on: LHRH binding sites on human ovarian cancer cells (EFO-27);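 further: Cell-associated radioactivity on confluent EFO-27 monolayers in 96-well plates, measured by microplate scintillation counting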
Residues, ends and D or L forms follow the SMILES beside them.
outcome measure: pEC50
One number for each entry, as −log10 of the molar value.

Enquiry: Dear colleague, I am looking for the recorded pEC50 of the following compound: CN(CC(=O)N[C@@H](Cc1c[nH]cn1)C(=O)N[C@@H](Cc1c[nH]c2ccccc12)C(=O)N[C@@H](CO)C(=O)N[C@@H](Cc1c[nH]cn1)C(=O)N[C@H](CCCNC(=N)N)C(=O)N[C@@H](Cc1c[nH]c2ccccc12)C(=O)N[C@@H](Cc1c[nH]cn1)C(=O)N1CCC[C@H]1C(=O)NNC(N)=O)C(=O)CN1CCN(CC(=O)O)CCN(CC(=O)O)CCN(CC(=O)O)CC1 [BRU-2763] (HELM PEPTIDE1{[O=C(O)CN1CCN(CC(=O)O)CCN(CC(=O)[*:2])CCN(CC(=O)O)CC1].[Sar].H.W.S.H.[dR].W.H.P.[O=C(NN[*:1])[*:2]].[am]}$$$$V2.0)
Return: 4.87

Origin of values: patent US20120045393A1
